Biological target: human α1β2γ2 GABAA receptor (Homo sapiens, UniProt P14867+P18507)
Construct: expressed in transfected cells; host or cells: Xenopus laevis oocytes injected with capped cRNA
Sequence (P14867 28-456, one chain of several): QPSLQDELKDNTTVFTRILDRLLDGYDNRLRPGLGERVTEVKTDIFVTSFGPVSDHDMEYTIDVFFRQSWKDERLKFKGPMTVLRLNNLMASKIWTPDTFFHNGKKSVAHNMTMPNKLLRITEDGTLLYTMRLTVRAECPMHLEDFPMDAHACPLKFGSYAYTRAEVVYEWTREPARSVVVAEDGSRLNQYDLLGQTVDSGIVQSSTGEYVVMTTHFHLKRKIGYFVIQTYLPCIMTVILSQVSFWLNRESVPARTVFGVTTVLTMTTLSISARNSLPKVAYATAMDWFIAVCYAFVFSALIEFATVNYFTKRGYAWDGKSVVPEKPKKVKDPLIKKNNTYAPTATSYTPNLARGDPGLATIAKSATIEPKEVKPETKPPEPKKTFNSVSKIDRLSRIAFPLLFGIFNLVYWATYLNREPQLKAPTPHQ
Sequence (P47870 25-512 partner limits assumed, one chain of several): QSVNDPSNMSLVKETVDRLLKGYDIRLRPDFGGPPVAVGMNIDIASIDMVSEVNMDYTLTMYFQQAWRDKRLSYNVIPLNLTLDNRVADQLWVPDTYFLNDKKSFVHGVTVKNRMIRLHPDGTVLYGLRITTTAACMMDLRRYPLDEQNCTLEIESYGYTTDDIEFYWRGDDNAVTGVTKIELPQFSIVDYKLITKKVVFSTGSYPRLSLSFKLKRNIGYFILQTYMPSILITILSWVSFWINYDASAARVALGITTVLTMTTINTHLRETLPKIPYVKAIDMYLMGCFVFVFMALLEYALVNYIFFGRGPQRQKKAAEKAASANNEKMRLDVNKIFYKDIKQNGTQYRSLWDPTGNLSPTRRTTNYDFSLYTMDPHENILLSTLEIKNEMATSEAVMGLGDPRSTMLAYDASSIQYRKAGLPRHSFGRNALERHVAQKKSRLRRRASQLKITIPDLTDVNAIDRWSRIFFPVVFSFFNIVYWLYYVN
Assay: Two-electrode voltage-clamp in Xenopus oocytes, potentiation of GABA EC10 current, GABAA1
Assay type: cell-based
Conditions: percentage potentiation of GABA EC10 current divided by that of diazepam control
Protocol: GABAA receptors were heterologously expressed in Xenopus oocytes by injecting cRNA corresponding to human α1, α2, α3, α5, β2, β3 and γ2 subunits of the GABAA receptor genes. […] Modulatory effect of test compound was determined and compared across subtypes. […] All measurements were done in a medium containing ND-96 (96 NaCl, 2 KCl, 1.8 CaCl2.2H2O, 1 MgCl2.6H2O, 5 HEPES, in mM, pH 7.5). […] The concentration of GABA corresponded to the EC10 value calculated for each oocyte. […]
PROPERTY_LABEL: Relative Potentiation for GABAA1
Numbers only.

Nc1c(C(=O)NCC2CC2)nnc2c(-c3ccccc3)cccc12    0.11
CCCNC(=O)c1nnc2c(-c3cc(OC)ccc3OC)c(Cl)ccc2c1N    0.32
CCCNC(=O)c1nnc2c(-c3ccc4[nH]ccc4c3)cccc2c1N    0.15

Look at each compound and report its Relative Potentiation for GABAA1.
1. CCCNC(=O)c1nnc2c(-c3ccc(OC)c(C)c3)cccc2c1N
2. CCCNC(=O)c1nnc2c(-c3c(Cl)cccc3OC)cccc2c1N [drawing 410]
3. CCCNC(=O)c1nnc2c(-c3cccc(Cl)c3Cl)cccc2c1N
4. CCCNC(=O)c1nnc2c(-c3cccc(N(C)C)c3)cccc2c1N
5. CCCNC(=O)c1nnc2c(-c3nc(Br)ccc3OC)cccc2c1N

Response line:
0.21
−0.040
0.067
0.17
0.34

Look at each compound and report its Relative Potentiation for GABAA1.
1. CCCNC(=O)c1nnc2c(-c3cccc(F)c3F)cccc2c1N
2. CCCNC(=O)c1nnc2c(-c3cccc(C)c3C)c(F)ccc2c1N
3. CCCNC(=O)c1nnc2c(-c3cc(C(=O)N4CCC4)ccc3OC)cccc2c1N

Response line:
1: −0.11; 2: 0.11; 3: 0.48

====

Molecular target: human α2β3γ2 GABAA receptor (Homo sapiens, UniProt P18507+P47869)
Construct: expressed in transfected cells; host or cells: Xenopus laevis oocytes injected with capped cRNA (α:β:γ 1:1:1)
Sequence (P47869 29-451): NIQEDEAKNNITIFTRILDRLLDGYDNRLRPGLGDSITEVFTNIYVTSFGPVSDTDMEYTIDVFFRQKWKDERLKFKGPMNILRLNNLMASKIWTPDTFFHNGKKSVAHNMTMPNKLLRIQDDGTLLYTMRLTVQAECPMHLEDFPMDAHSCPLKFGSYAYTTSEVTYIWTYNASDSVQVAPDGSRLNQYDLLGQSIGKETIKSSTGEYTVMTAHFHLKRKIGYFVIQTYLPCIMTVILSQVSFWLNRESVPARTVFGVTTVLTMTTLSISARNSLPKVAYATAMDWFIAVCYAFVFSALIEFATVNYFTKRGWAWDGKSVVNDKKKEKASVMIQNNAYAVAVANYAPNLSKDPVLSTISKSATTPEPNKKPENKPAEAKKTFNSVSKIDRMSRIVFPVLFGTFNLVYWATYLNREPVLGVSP
Sequence (P18507 40-475): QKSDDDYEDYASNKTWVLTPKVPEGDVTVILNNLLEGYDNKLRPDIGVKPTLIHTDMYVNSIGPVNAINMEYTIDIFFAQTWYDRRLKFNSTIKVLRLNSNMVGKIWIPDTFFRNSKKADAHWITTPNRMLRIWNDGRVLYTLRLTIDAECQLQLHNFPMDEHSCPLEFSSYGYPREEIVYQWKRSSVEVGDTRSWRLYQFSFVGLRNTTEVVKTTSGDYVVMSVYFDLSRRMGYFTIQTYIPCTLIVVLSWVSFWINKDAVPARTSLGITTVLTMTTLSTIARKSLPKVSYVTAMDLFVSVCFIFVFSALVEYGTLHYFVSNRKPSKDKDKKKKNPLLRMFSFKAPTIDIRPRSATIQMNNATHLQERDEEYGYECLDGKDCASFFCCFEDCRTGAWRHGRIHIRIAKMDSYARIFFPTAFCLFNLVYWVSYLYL
Sequence (P28472 26-473 partner): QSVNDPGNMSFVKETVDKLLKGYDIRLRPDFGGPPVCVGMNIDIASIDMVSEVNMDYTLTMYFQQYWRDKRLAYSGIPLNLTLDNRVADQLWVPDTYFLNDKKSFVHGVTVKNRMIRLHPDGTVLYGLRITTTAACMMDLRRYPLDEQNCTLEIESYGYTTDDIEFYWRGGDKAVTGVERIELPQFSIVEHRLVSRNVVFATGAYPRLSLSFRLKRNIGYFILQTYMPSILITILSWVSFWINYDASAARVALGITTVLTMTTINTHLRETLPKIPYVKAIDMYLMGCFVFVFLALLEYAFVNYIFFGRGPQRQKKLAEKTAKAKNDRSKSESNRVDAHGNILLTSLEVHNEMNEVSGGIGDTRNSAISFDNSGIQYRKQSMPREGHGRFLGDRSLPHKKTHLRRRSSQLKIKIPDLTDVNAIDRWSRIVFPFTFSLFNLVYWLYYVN
Experiment: Two-electrode voltage-clamp in Xenopus oocytes, potentiation of GABA EC10 current, GABAA2
Type: cell-based
Settings: percentage potentiation of GABA EC10 current divided by that of diazepam control
Quick rule for you: Relative Potentiation for GABAA2 at 0.3 or higher means yes (1), lower means no (0).

CCCNC(=O)c1nnc2c(-c3ccccc3)c(OC)ccc2c1N    no (0)
CCCNC(=O)c1nnc2c(-c3ccc(F)c(F)c3)cccc2c1N    no (0)
CCCNC(=O)c1nnc2c(-c3ccc(F)cc3OC)cccc2c1N    yes (1)

Prompt line: Assess whether reported Relative Potentiation for GABAA2 for `CCCNC(=O)c1nnc2c(-c3cccc(C#N)c3)cccc2c1N` sits at 0.3 or higher.
Response line: yes (1)

Prompt line: Assess whether reported Relative Potentiation for GABAA2 for `CCCNC(=O)c1nnc2c(-c3cc(C)ccc3C)c(F)ccc2c1N` sits at 0.3 or higher.
Response line: no (0)

Prompt line: Assess whether reported Relative Potentiation for GABAA2 for `CCCNC(=O)c1nnc2c(-c3cnc(OC)c(F)c3)cccc2c1N` sits at 0.3 or higher.
Response line: no (0)

FYI, the data here is from patent US20110144331A1.
